Values from ChEMBL document CHEMBL4842319

# test.protocol: Selectivity index, ratio of CC50 for mouse RAW264.7 cells to MIC for antimycobacterial activity against Mycobacterium tuberculosis H37Rv ATCC 27294
# Assay type: toxicity
# settings: read-out: Selectivity Index
Assign Yes to entries whose selectivity ratio meets or exceeds 0.8; assign No to the rest.

Q: hey, is selectivity ratio for this one >= 0.8? C#CCN(c1nc(-c2ccc(C)cc2)no1)C1CCCCC1
Ans: No

Q: Does the compound CC(=O)OC[C@H]1O[C@H](OC[C@H](Cn2cc(-c3ccc(-c4noc(NC5CCCCC5)n4)cc3)nn2)OC(C)=O)C=C[C@@H]1OC(C)=O have recorded selectivity ratio that is 0.8 or more?
Ans: No

Q: Item CC(=O)OC[C@H]1O[C@H](OC[C@@H](Cn2cc(CN(c3nc(-c4cccc(C)c4)no3)C3CCCCC3)nn2)OC(C)=O)C=C[C@@H]1OC(C)=O with selectivity ratio of 0.8 or above?
Ans: No

Q: selectivity ratio >= 0.8 for C#CCN(c1nc(-c2cccc([N+](=O)[O-])c2)no1)C1CCCCC1 ?
Ans: No

Q: Test whether the compound CC(=O)OC[C@H]1O[C@H](OC[C@@H](Cn2cc(CN(c3nc(-c4ccc(C)cc4)no3)C3CCCCC3)nn2)OC(C)=O)C=C[C@@H]1OC(C)=O records selectivity ratio of 0.8 or higher.
Ans: Yes

Q: # bool: selectivity ratio of C#CCN(c1nc(-c2ccc(C#C)cc2)no1)C1CCCCC1 >= 0.8
Ans: No

Q: Check if selectivity ratio >= 0.8 (inclusive). Item: CC(=O)OC[C@H]1O[C@H](OC[C@@H](Cn2cc(CN(c3nc(-c4ccc(Cl)cc4)no3)C3CCCCC3)nn2)OC(C)=O)C=C[C@@H]1OC(C)=O
Ans: No

Q: Check the entry C#CCN(c1nc(-c2ccc([N+](=O)[O-])cc2)no1)C1CCCCC1 : does selectivity ratio equal or exceed 0.8?
Ans: No

Q: Hello, I need to know if C#CCN(c1nc(-c2ccc(C(F)(F)F)cc2)no1)C1CCCCC1 has measured selectivity ratio not below 0.8. Thanks!
Ans: Yes

Q: // inclusive: selectivity ratio at least 0.8? input: CCCCCCCCCCc1cn(C[C@@H](CO[C@@H]2C=C[C@H](OC(C)=O)[C@@H](COC(C)=O)O2)OC(C)=O)nn1
Ans: No

Q: Can COc1ccc(-c2noc(N(Cc3cn(C[C@H](CO[C@@H]4C=C[C@H](OC(C)=O)[C@@H](COC(C)=O)O4)OC(C)=O)nn3)C3CCCCC3)n2)cc1 be said to have selectivity ratio at or above 0.8?
Ans: Yes
